Target: DNA polymerase alpha catalytic subunit (Homo sapiens)
Sequence (P09884 whole entry): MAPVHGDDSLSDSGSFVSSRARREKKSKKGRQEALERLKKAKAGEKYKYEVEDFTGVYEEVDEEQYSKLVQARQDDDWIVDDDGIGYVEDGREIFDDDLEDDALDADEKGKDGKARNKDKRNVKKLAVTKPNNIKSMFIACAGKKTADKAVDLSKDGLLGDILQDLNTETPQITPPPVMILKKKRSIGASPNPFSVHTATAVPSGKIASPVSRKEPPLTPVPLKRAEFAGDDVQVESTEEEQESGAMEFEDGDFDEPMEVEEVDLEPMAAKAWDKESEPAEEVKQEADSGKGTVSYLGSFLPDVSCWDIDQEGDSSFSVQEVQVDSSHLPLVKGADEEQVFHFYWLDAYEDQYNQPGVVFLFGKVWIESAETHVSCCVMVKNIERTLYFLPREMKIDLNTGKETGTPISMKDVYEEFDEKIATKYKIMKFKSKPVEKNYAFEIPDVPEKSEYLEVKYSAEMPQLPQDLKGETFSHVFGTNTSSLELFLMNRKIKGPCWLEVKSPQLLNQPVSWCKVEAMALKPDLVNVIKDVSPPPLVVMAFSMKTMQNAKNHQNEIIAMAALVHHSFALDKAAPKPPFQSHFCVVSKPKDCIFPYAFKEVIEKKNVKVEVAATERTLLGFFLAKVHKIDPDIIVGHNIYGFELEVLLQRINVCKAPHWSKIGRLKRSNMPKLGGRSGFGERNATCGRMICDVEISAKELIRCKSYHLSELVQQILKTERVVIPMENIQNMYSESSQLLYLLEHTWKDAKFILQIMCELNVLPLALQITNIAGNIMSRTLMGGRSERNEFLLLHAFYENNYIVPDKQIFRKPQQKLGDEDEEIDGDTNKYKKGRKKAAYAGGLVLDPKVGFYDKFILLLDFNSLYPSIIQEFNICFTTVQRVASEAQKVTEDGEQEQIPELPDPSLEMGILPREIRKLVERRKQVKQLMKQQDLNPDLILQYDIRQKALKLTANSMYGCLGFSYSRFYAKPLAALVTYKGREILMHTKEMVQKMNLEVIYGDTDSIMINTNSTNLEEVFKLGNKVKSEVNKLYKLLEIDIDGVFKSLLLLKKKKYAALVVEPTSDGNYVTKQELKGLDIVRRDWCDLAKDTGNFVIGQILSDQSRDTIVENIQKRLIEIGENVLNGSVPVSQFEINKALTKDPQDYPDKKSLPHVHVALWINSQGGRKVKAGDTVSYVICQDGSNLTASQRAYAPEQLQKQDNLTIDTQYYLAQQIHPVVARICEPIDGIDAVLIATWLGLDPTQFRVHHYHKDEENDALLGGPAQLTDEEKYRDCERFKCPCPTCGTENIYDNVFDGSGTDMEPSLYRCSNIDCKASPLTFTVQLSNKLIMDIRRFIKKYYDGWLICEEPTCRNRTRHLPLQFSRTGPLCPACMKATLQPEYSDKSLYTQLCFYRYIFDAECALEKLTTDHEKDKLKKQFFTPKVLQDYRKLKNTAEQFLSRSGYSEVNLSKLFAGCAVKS
Assay: Inhibition of DNA polymerase alpha (unknown origin)
test_readout: IC50 (nM)
Enter your answer as a number in nM; do not include the unit.

Could you tell me which IC50 is on file for CNCc1ccc(-c2[nH]c3cc(F)cc4c3c2CCNC4=O)cc1 [RUCAPARIB] ?
0.4
